Target: Cell-associated proTGFβ1 (hGARP-proTGFβ1 and hLRRC33-proTGFβ1 complexes)
Test: Octet (BLI); IgG1 from yeast; mean of hGARP and hLRRC33
Readings of Cell AVRG (average KD) for the listed binders
Dear colleague, please return just the value in nM, with no unit written.

Binder	Measured Result
Ab2 (antibody, V domains shown) VH: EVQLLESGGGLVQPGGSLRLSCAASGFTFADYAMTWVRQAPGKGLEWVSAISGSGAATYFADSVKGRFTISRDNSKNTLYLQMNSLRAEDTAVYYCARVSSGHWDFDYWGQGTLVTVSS VL: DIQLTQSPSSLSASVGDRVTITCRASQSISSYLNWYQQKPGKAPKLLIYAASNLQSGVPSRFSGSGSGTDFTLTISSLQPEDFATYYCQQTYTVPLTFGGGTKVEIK	0.643
Ab17 (antibody, IgG1, V domains shown) VH: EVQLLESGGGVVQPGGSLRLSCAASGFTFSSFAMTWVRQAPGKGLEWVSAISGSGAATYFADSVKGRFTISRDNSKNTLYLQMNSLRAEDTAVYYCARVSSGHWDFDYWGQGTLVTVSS VL: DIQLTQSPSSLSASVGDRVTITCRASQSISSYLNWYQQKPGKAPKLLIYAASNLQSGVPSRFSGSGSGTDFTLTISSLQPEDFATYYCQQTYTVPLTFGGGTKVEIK	4.64

As a next step, examine the binder that follows.
-- ask Supply measured Cell AVRG (average KD) of Ab15 (antibody, IgG1, V domains shown) VH: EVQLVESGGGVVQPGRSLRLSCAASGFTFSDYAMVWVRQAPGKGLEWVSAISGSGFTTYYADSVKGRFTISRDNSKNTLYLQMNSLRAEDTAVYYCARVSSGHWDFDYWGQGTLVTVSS VL: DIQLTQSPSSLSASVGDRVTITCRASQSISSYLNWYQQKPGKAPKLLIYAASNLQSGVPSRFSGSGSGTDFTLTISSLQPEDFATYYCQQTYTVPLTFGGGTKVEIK in your reply.
-- reply 3.86
